The reported numbers originate from patent US20120316071A1.

- TARGET ENTITY: T1, rHuman ErbB2/Fc Chimera, CF (R&D Systems Cat#1129-ER) (human, UniProt P04626 23-652)
- T1 construct: Bought protein; also called human epidermal growth factor 2 receptor; Fc part of the bought chimera not given
- ASSAY: ECL multispot (MSD) assay; antigen spotted on plate, Fab in solution;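 also: purified Fab incubated 1 hour at 20 °C in 1% BSA TBST on antigen-coated wells, detected with TAG antibody, ECL read on Sector Imager 2400, compared to each well's blank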
Reported ECL signal values for the following binders.

Below are worked cases with known answers.
BINDER	ECL signal
Fab VH1-46_IGHD6-6*01_IGHJ1*01 S102A/S103P/S104F (APF) & L6_IGKJ1*01 S30W (Fab, V domains shown, Tested as Fab made in E. coli; The heavy chain vector (Plasmid A) adds CH1 with His and Flag tags, the kappa vector (Plasmid C) adds CL kappa; also called APF / S30W) VH: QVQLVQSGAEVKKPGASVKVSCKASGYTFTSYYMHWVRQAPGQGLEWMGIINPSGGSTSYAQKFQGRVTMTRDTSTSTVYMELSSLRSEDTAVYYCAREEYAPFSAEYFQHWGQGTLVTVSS VL: EIVLTQSPATLSLSPGERATLSCRASQSVWSYLAWYQQKPGQAPRLLIYDASNRATGIPARFSGSGSGTDFTLTISSLEPEDFAVYYCQQRSNWPPWTFGQGTKVEIKR	73 ECL signal
Fab VH1-46_IGHD6-6*01_IGHJ1*01 S102A/S103P/S104F (APF) & L6_IGKJ1*01 S30R (Fab, V domains shown, Tested as Fab made in E. coli; The heavy chain vector (Plasmid A) adds CH1 with His and Flag tags, the kappa vector (Plasmid C) adds CL kappa; also called APF / S30R) VH: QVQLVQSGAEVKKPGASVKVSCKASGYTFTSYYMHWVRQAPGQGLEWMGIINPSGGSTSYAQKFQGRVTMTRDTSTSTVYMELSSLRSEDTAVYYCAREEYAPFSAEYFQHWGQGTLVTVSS VL: EIVLTQSPATLSLSPGERATLSCRASQSVRSYLAWYQQKPGQAPRLLIYDASNRATGIPARFSGSGSGTDFTLTISSLEPEDFAVYYCQQRSNWPPWTFGQGTKVEIKR	35 ECL signal
Fab VH1-46_IGHD6-6*01_IGHJ1*01 S102A/S103P/S104F (APF) & L6_IGKJ1*01 S30L (Fab, V domains shown, Tested as Fab made in E. coli; The heavy chain vector (Plasmid A) adds CH1 with His and Flag tags, the kappa vector (Plasmid C) adds CL kappa; also called APF / S30L) VH: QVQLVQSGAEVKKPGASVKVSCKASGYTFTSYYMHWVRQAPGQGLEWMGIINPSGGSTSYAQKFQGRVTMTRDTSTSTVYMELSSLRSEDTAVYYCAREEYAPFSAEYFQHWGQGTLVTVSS VL: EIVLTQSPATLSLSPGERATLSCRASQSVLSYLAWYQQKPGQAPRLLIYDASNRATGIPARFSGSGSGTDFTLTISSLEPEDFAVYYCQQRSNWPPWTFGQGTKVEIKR	244 ECL signal

Please report the recorded ECL signal for Fab VH1-46_IGHD6-6*01_IGHJ1*01 S102A/S103P/S104F (APF) & L6_IGKJ1*01 S30T (Fab, V domains shown, Tested as Fab made in E. coli; The heavy chain vector (Plasmid A) adds CH1 with His and Flag tags, the kappa vector (Plasmid C) adds CL kappa; also called APF / S30T) VH: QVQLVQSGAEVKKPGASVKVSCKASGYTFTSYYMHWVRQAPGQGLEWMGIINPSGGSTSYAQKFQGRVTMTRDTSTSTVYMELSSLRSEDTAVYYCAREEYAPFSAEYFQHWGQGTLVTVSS VL: EIVLTQSPATLSLSPGERATLSCRASQSVTSYLAWYQQKPGQAPRLLIYDASNRATGIPARFSGSGSGTDFTLTISSLEPEDFAVYYCQQRSNWPPWTFGQGTKVEIKR .
243 ECL signal
